PROTOCOL: Solubility in FaSSIF (Fasted State Simulated Intestinal Fluid)
Type: physicochemical
CONDITIONS USED: kinetic from dmso stock, FaSSIF pH 6.5, 25° C.
Record form. Attribute: solubility at 2 h. Fill in for each entry.

Quick one: solubility at 2 h of `COc1cc(Cn2c(=O)cnc3cnc(-c4c(OC)ncnc4C4CC4)nc32)ccc1-c1nc(C(F)(F)F)cn1C(C)C` ? ≥ 100 µM

Respectfully, I request solubility at 2 h for each entry included below.
1. COc1ncnc(C2CC2)c1-c1nc(C)c2cc(-c3ncnn3C)c(=O)n(Cc3ccc(-c4nc(C(F)(F)F)cn4C4CC4)cc3)c2n1
2. COc1ncnc(C2CC2)c1-c1ncc2cc(C(C)(C)O)c(=O)n(Cc3ccc(-c4nc(C(F)(F)F)cn4C4CC4)cc3)c2n1
3. COc1ncnc(C2CC2)c1-c1ncc2cc(-c3cnn(CCN(C)C)c3)c(=O)n(Cc3ccc(-c4nc(C(F)(F)F)cn4C4CC4)cc3)c2n1

10 to 100 µM
≥ 100 µM
≥ 100 µM

Value sought for every listed compound: solubility at 2 h.
1. COc1cc(Cn2c(=O)ccc3cnc(-c4c(OC)ncnc4OC)nc32)cc(F)c1-c1nc(C(F)(F)F)cn1C(C)C
2. COc1ncnc(C2CC2)c1-c1ncc2cc(C3CCN(C)CC3)c(=O)n(Cc3ccc(-c4nc(C(F)(F)F)cn4C4CC4)cc3)c2n1
3. COc1ncnc(C2CC2)c1-c1ncc2cc(-c3cnn(C)c3)c(=O)n(Cc3ccc(-c4nc(C(F)(F)F)cn4C)cc3)c2n1

1. 10 to 100 µM
2. ≥ 100 µM
3. < 10 µM
